In this section we review reported pIC50 values for a set of compounds.
- measuredTarget: HCV polymerase (NS5B) type 1b (Hepatitis C virus genotype 1b, UniProt P26663)
- Construct: a region encoding NS5B (J Virol 1991 March, 65(3), 1105-13, 544 amino acids after deletion of 47 amino acids on the C-terminal); 6xHis (C); made in house; host or cells: Escherichia coli
- Sequence (P26663 2420-2963): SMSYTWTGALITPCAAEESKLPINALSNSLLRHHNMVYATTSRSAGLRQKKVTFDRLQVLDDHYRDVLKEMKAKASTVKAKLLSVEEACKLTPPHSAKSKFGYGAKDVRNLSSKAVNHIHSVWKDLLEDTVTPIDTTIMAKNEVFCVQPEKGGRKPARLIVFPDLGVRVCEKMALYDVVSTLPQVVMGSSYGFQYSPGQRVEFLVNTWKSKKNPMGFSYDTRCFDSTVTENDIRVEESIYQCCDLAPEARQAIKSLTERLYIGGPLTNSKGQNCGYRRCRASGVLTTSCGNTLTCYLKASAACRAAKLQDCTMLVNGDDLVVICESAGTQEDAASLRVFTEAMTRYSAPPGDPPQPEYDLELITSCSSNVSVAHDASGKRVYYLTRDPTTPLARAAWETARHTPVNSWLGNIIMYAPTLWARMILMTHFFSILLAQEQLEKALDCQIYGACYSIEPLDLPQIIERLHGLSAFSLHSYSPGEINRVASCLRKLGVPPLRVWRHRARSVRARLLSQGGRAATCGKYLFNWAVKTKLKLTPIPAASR
- experimentSummary: Assay of enzyme (HCV polymerase) inhibitory activity, type 1b enzyme
- Format: biochemical, HCV BK strain (type 1b)
- testSettings: HCV polymerase inhibitory activity IC50, 1b, type 1b enzyme
- Protocol: The evaluation of the HCV polymerase inhibitory activity of the compound of the present invention is explained in the following. This polymerase is an enzyme coded for by the non-structural protein region called NS5B on the genome RNA of HCV. i) Preparation of Enzyme (HCV Polymerase) […] The HCV polymerase inhibitory activity (IC50) of the compound of the present invention was calculated from the values of radioactivity of the enzyme reaction with and without the test substance. […]
pIC50: −log10 of the molar value.

{"structure": "CCC(F)(F)c1ccc(CNC(=O)[C@H]2CN(c3cnc4cnccc4n3)CCN2S(=O)(=O)c2ccc(N3CCOCC3)cc2)cc1", "pIC50": "> 7.00"}
{"structure": "O=C(CC(=O)N1CCN(S(=O)(=O)c2ccc(OC(F)(F)F)cc2)[C@@H](C(=O)NCc2ccc(OC(F)(F)F)cc2)C1)Nc1nnc(Br)s1", "pIC50": "< 6.00"}
{"structure": "Cc1c(Cl)c(=O)nc2sc(N3CCN(S(=O)(=O)c4ccc(OC(F)(F)F)cc4)[C@@H](C(=O)NCc4ccc(OC(F)(F)F)cc4)C3)nn12", "pIC50": "> 7.00"}
{"structure": "CCCc1ccc(CNC(=O)[C@H]2CN(c3nc4c(C(=O)OCC)nncc4s3)CCN2S(=O)(=O)c2ccc(CC)cc2)cc1", "pIC50": "> 7.00"}
{"structure": "O=C(NCc1ccc(OC(F)F)cc1F)[C@H]1CN(c2nc3nc(Cl)ncc3s2)CCN1S(=O)(=O)c1ccc(OC(F)(F)F)cc1", "pIC50": "> 7.00"}
{"structure": "O=C(NCc1ccc(OC(F)F)c(F)c1)[C@H]1CN(c2nc3nc(C4CC4)[nH]c(=O)c3s2)CCN1S(=O)(=O)c1ccc(C(F)(F)F)cc1", "pIC50": "> 7.00"}
{"structure": "CNC(=O)c1ncc2sc(N3CCN(S(=O)(=O)c4ccc(OC(F)(F)F)cc4)[C@@H](C(=O)NCc4ccc(OC(F)(F)F)cc4)C3)nc2n1", "pIC50": "> 7.00"}
{"structure": "Cc1nc(Cl)c2sc(N3CCN(S(=O)(=O)c4ccc(OC(F)(F)F)cc4)[C@@H](C(=O)NCc4ccc(OC(F)(F)F)cc4)C3)nc2n1", "pIC50": "> 7.00"}
{"structure": "CCC(F)(F)c1ccc(CNC(=O)[C@H]2CN(c3nc4ccncc4[nH]3)CCN2S(=O)(=O)c2ccc(OC(F)(F)F)cc2)cc1", "pIC50": "> 7.00"}
{"structure": "O=C(NCc1ccc(OC(F)(F)F)cc1)[C@H]1CN(c2nc3nc(C4CCC4)ncc3s2)CCN1S(=O)(=O)c1ccc(OC(F)(F)F)cc1", "pIC50": "> 7.00"}
{"structure": "O=C(NCc1ccc(OC(F)F)cc1)[C@H]1CN(c2nc3ncncc3s2)CCN1S(=O)(=O)c1ccc(OC(F)(F)F)cc1", "pIC50": "> 7.00"}
{"structure": "CC(C)(O)C#Cc1ncc2sc(N3CCN(S(=O)(=O)c4ccc(OC(F)(F)F)cc4)[C@@H](C(=O)NCc4ccc(OC(F)(F)F)cc4)C3)nc2n1", "pIC50": "> 7.00"}
{"structure": "O=C(NCc1ccc(OC(F)(F)F)cc1)[C@H]1CN(c2cnc3c(Cl)cccc3n2)CCN1S(=O)(=O)c1ccc(OC(F)(F)F)cc1", "pIC50": "> 7.00"}
{"structure": "CC(=O)c1sc(N2CCN(S(=O)(=O)c3ccc(OC(F)(F)F)cc3)[C@@H](C(=O)NCc3ccc(OC(F)(F)F)cc3)C2)nc1C", "pIC50": "> 7.00"}
{"structure": "CC(=O)N1CCN(S(=O)(=O)c2ccc(OC(F)(F)F)cc2)[C@@H](C(=O)NCc2cnc(C)cn2)C1", "pIC50": "< 6.00"}
{"structure": "O=C(NCc1ccc(OC(F)(F)F)c(F)c1)[C@H]1CN(c2nc3nc(C4CC4)ncc3s2)CCN1S(=O)(=O)c1ccc(OC(F)(F)F)cc1", "pIC50": "> 7.00"}
{"structure": "O=C(NCc1ccc(OC(F)(F)F)cc1)[C@H]1CN(c2nc3nc(C4CC4)ncc3s2)CCN1S(=O)(=O)c1ccc(OC(F)(F)C(F)F)cc1", "pIC50": "> 7.00"}
{"structure": "Cc1nncc2sc(N3CCN(S(=O)(=O)c4ccc(OC(F)(F)F)cc4)[C@@H](C(=O)NCc4ccc(OC(F)(F)F)cc4)C3)nc12", "pIC50": "> 7.00"}
{"structure": "CCn1ncc2sc(N3CCN(S(=O)(=O)c4ccc(C(F)(F)F)cc4)[C@@H](C(=O)NCc4ccc(OC(F)(F)F)cc4)C3)nc2c1=O", "pIC50": "> 7.00"}
{"structure": "CCCc1ccc(CNC(=O)[C@H]2CN(C(=O)Nc3ccccc3C(=O)O)CCN2S(=O)(=O)c2ccc(OC(F)(F)F)cc2)cc1", "pIC50": "< 6.00"}
{"structure": "O=C(NCc1ccc(OC(F)F)cc1)[C@H]1CN(c2nc3nc(Cl)ncc3s2)CCN1S(=O)(=O)c1ccc(OC(F)(F)F)cc1", "pIC50": "> 7.00"}
{"structure": "CNC(=O)c1cncc2ncc(N3CCN(S(=O)(=O)c4ccc(OC(F)(F)F)cc4)[C@@H](C(=O)NCc4ccc(OC(F)(F)F)cc4)C3)nc12", "pIC50": "> 7.00"}
{"structure": "O=C(NCc1ccc(OC(F)(F)F)cc1)[C@H]1CN(c2nn3ccc(=O)nc3s2)CCN1S(=O)(=O)c1ccc(OC(F)F)cc1", "pIC50": "> 7.00"}
{"structure": "CC(C)(C)NC(=O)c1cnc(N2CCN(S(=O)(=O)c3ccc(OC(F)(F)F)cc3)[C@@H](C(=O)NCc3ccc(OC(F)(F)F)cc3)C2)cn1", "pIC50": "6.00 to 7.00"}

Attribution: patent US8017612B2
